- Test system: 922993-354-T-J3-PDC complex spheroids, viability, % test/control;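 note: spheroids exposed to the agents for 7 days before readout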
- protocol_summary: Anticancer human tumor 922993-354-T-J3-PDC patient-derived endometrial carcinoma cell line growth inhibition [CLK]
- recorded_conditions: second compound 10 µM; first compound 0.316 µM; stronger effect = lower value
# reported viability, T/C; entries follow
readout: viability, T/C (%)

[[record]]
compound = "COc1ccc([C@@H](O)c2cc(-c3ncnc4cc(N5CCOCC5)ccc34)c(F)cc2Cl)nn1 + CNC(=O)c1ccc(Nc2nc(OC3CCCC3)c3c(-c4ccc5nc(C)oc5c4)c[nH]c3n2)c(OC)c1"
measure_unit = "%"
value_measured = 41.6

[[record]]
compound = "COc1c(OCCCN2CCOCC2)ccc2c3n(c(=NC(=O)c4cnc(N)nc4)nc12)CCN3 + CNC(=O)c1ccc(Nc2nc(OC3CCCC3)c3c(-c4ccc5nc(C)oc5c4)c[nH]c3n2)c(OC)c1"
measure_unit = "%"
value_measured = 7.11

[[record]]
compound = "CC(=O)O[C@H]1C(=O)[C@@]2(C)[C@H]([C@H](OC(=O)c3ccccc3)[C@]3(O)C[C@H](OC(=O)[C@H](O)[C@@H](NC(=O)c4ccccc4)c4ccccc4)C(C)=C1C3(C)C)[C@]1(OC(C)=O)CO[C@@H]1C[C@@H]2O + CN1CCN(c2cc(C(=O)Nc3cc4cc(-c5cnn(C)c5)ccc4cn3)ccn2)CC1"
measure_unit = "%"
value_measured = 0.2

[[record]]
compound = "CC(=O)O[C@H]1C(=O)[C@@]2(C)[C@H]([C@H](OC(=O)c3ccccc3)[C@]3(O)C[C@H](OC(=O)[C@H](O)[C@@H](NC(=O)c4ccccc4)c4ccccc4)C(C)=C1C3(C)C)[C@]1(OC(C)=O)CO[C@@H]1C[C@@H]2O + CNC(=O)c1ccc(Nc2nc(OC3CCCC3)c3c(-c4ccc5nc(C)oc5c4)c[nH]c3n2)c(OC)c1"
measure_unit = "%"
value_measured = 40.2

[[record]]
compound = "Nc1ccn(C2OC(CO)C(O)C2(F)F)c(=O)n1 (centres undefined) + CNC(=O)c1ccc(Nc2nc(OC3CCCC3)c3c(-c4ccc5nc(C)oc5c4)c[nH]c3n2)c(OC)c1"
measure_unit = "%"
value_measured = 10.8

[[record]]
compound = "Nc1ccccc1NC(=O)c1ccc(CNC(=O)OCc2cccnc2)cc1 + CN1CCN(c2cc(C(=O)Nc3cc4cc(-c5cnn(C)c5)ccc4cn3)ccn2)CC1"
measure_unit = "%"
value_measured = 2.33

[[record]]
compound = "COC1C=CCC(C)C(C)S(=O)(=O)NC(=O)c2ccc3c(c2)N(CC2CCC21)CC1(CCCc2cc(Cl)ccc21)CO3 (centres undefined) + CN1CCN(c2cc(C(=O)Nc3cc4cc(-c5cnn(C)c5)ccc4cn3)ccn2)CC1"
measure_unit = "%"
value_measured = 1.53

[[record]]
compound = "O=C(c1cc(Cc2n[nH]c(=O)c3ccccc23)ccc1F)N1CCN(C(=O)C2CC2)CC1 + CNC(=O)c1ccc(Nc2nc(OC3CCCC3)c3c(-c4ccc5nc(C)oc5c4)c[nH]c3n2)c(OC)c1"
measure_unit = "%"
value_measured = 31.5

[[record]]
compound = "CC(CO)NC(=O)c1cc(-c2ccc(Cl)cc2)nn(-c2cnn(C)c2)c1=O (centres undefined) + CNC(=O)c1ccc(Nc2nc(OC3CCCC3)c3c(-c4ccc5nc(C)oc5c4)c[nH]c3n2)c(OC)c1"
measure_unit = "%"
value_measured = 29.9


Where these numbers come from: PubChem BioAssay AID2060606
